tested on: XIP peptide (Xip251-270) binding; assay: small-molecule binders of XIP peptide, primary screen, biochemical, small-molecule microarray, fluorescence 635/667 nm, 0.1 µg/mL protein (AID 1182); details: fluorescent protein binding, 635 nm, higher = more signal, called active from +8 up or from −8 down
Active and inactive are the calls of the source.
Below: a set of entries, each annotated with reported composite z-score.
attribute-measured: composite z-score

| mol-smiles | attribute-measured | observed-measurement |
| --- | --- | --- |
| CC(C)[Si](OCC[C@H]1O[C@]2(C(=O)N(Cc3ccccc3)c3ccccc32)[C@@H](C)[C@@H]1[Si](C)(C)O)(C(C)C)C(C)C | composite z-score | -0.177 (inactive) |
| O=C1O[C@@H](c2ccccc2)[C@@H](c2ccccc2)N2[C@@H](c3ccc(O)cc3)[C@]3(C(=O)Nc4ccc(C#CC5(O)CCCCCC5)cc43)[C@@H](C(=O)Nc3nc4ccccc4s3)[C@H]12 | composite z-score | 1.8 (inactive) |
| O=C1c2ccccc2[C@](Cc2ccccc2I)(C(=O)O)[C@H](c2ccc(CO)cc2)N1C1CCCCC1 | composite z-score | 1.87 (inactive) |
| COC(=O)[C@@]1(Cc2ccc(OC)cc2)[C@H]2c3cc(C(=O)N(C)C)n(Cc4ccc(C)c(F)c4F)c3C[C@H]2CN1C(=O)c1ccccc1 | composite z-score | -0.0903 (inactive) |
| CN(C)CCCC[C@@H]1NC(=O)[C@@H]2C[C@H](C(=O)O)[C@H](c3ccc(O)cc3)N2C1=O | composite z-score | 0.646 (inactive) |
| NC(=O)NCC#Cc1ccc2c(c1)[C@]1(C(=O)N2)[C@H](C(=O)N2CCCCCCC2)[C@H]2C(=O)O[C@H](c3ccccc3)[C@H](c3ccccc3)N2[C@@H]1c1ccccc1OCCO | composite z-score | 4.02 (inactive) |
